Assay: Binding affinity to NusB (unknown origin) assessed as dissociation constant
Design: species or system Bacteria
pKd: −log10 of the molar value.

{"columns": ["chemical smiles", "pKd"],
 "data": [
  ["C#Cc1cccc(/N=C/c2cc([N+](=O)[O-])ccc2O)c1", "~5.82"]
]}

* * *

Assay: Inhibition of ribo(C)10 stimulated Escherichia coli AR120 Rho ATPase activity preincubated for 2 mins in absence of ribo(C)10 followed by ATP addition and measured for 90 sec by [gamma-32P]ATP based liquid scintillation counting method
pKi: −log10 of the molar value.

{"columns": ["chemical smiles", "pKi"],
 "data": [
  ["C=C1CCO[C@]2([C@@H](O)[C@@](C)(O)CO)NC(=O)[C@@]1(O)NC2=O", 4.59]
]}
